Target: human 5-HT1B receptor (Homo sapiens, UniProt P28222)
Sequence (P28222 whole entry): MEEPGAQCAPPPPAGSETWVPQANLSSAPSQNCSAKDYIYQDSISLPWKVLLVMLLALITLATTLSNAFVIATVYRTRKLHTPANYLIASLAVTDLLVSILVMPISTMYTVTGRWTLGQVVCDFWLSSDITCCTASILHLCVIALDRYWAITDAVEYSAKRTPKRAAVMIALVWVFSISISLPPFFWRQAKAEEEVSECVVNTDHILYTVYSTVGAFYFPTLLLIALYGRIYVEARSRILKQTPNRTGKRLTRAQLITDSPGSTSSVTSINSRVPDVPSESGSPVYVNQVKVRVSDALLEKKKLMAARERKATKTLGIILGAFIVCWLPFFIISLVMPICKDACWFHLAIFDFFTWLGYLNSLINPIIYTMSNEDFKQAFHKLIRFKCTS
Readout: Kd

Short answer for COc1ccc(NC(=O)c2ccc(-c3ccncc3)c(C)c2)cc1N1CCN(C)CC1 [[^3H]-GR125743, reference compound] : Kd was 0.74 nM

Hey, just so you know, these numbers are from paper PMC6100008.
